These entries and their values trace back to paper PMC8799877.

test: In vivo pharmacokinetic study; parameters: species or system male Sprague-Dawley rats; conditions: male, Sprague-Dawley, rat, plasma, po, 10 mg/kg
measured property: half-life (h)

molecular_string=NS(=O)(=O)c1ccc(Nc2nc(-c3ccc(F)cc3)c3ccccc3n2)cc1 measured_property=half-life data_value=1.77

###

target: UniProt O60885; assay: HTRF bromodomain binding assay, BRD4
measured property: IC50 (µM)

molecule="NS(=O)(=O)c1ccc(Nc2nc(-c3ccccc3Cl)c3ccccc3n2)cc1 [Compound 23]" tgt="UniProt O60885" measured_property=IC50 output_unit=µM data_value=19.7
molecule="O=C(c1ccc(Nc2nc(-c3ccc(F)cc3)c3ccccc3n2)cc1)N1CCOCC1 [Compound 50]" tgt="UniProt O60885" measured_property=IC50 output_unit=µM data_value=3.07
molecule="COC(=O)c1cccc(-c2nc(Nc3ccc(S(N)(=O)=O)cc3)nc3ccccc23)c1 [Compound 40]" tgt="UniProt O60885" measured_property=IC50 output_unit=µM data_value=7.62
molecule="O=S(=O)(c1ccc(Nc2nc(-c3ccc(F)cc3)c3ccccc3n2)cc1)N1CCOCC1 [Compound 49]" tgt="UniProt O60885" measured_property=IC50 output_unit=µM data_value=1.33

###

molecular target: UniProt O60885; experiment: HTRF bromodomain binding assay, BRD4
Criterion: IC50 strictly under 7 µM. Met: Criterion met. Not met: Criterion not met.

molecular_string=NS(=O)(=O)c1ccc(Nc2nc(-c3ccc(F)cc3)c3ccccc3n2)cc1 class_label="Criterion met"
molecular_string=NS(=O)(=O)c1ccc(Nc2nc(-c3ccc(Br)cc3)c3ccccc3n2)cc1 class_label="Criterion met"
molecular_string=NS(=O)(=O)c1cccc(Nc2nc(-c3ccc(Cl)cc3)c3ccccc3n2)c1 class_label="Criterion not met"
molecular_string=NS(=O)(=O)c1ccc(Nc2nc(-c3cccc4ccccc34)c3ccccc3n2)cc1 class_label="Criterion met"
molecular_string=OCCNc1nc(-c2ccc(Cl)cc2)c2ccccc2n1 class_label="Criterion not met"
molecular_string=NS(=O)(=O)c1ccc(Nc2nc(-c3cccc(Cl)c3)c3ccccc3n2)cc1 class_label="Criterion not met"
molecular_string=COc1ccc(-c2nc(Nc3ccc(S(N)(=O)=O)cc3)nc3ccccc23)cc1 class_label="Criterion not met"
molecular_string=O=S(=O)(c1ccc(Nc2nc(-c3ccc(Cl)cc3)c3ccccc3n2)cc1)N1CCOCC1 class_label="Criterion met"

###

biological target: BRD4(2) (Homo sapiens); assay: HTRF bromodomain binding assay, BRD4
pIC50: −log10 of the molar value.
// pIC50 lookup, one value per entry
measured property: pIC50

molecular_string=O=C(O)c1ccc(Nc2nc(-c3ccc(F)cc3)c3ccccc3n2)cc1 tgt="BRD4(2) (Homo sapiens)" measured_property=pIC50 limit_operator== data_value=6.03
molecular_string=NS(=O)(=O)c1ccccc1Nc1nc(-c2ccc(F)cc2)c2ccccc2n1 tgt="BRD4(2) (Homo sapiens)" measured_property=pIC50 limit_operator== data_value=6.23
molecular_string=NS(=O)(=O)c1ccc(Nc2nc(-c3ccccc3)c3ccccc3n2)cc1 tgt="BRD4(2) (Homo sapiens)" measured_property=pIC50 limit_operator== data_value=4.99
molecular_string=NS(=O)(=O)c1ccc(Nc2nc(-c3ccc(C(F)(F)F)cc3)c3ccccc3n2)cc1 tgt="BRD4(2) (Homo sapiens)" measured_property=pIC50 limit_operator== data_value=6.37
molecular_string=Cc1ccc2nc(Nc3ccc(S(N)(=O)=O)cc3)nc(-c3ccc(Cl)cc3)c2c1 tgt="BRD4(2) (Homo sapiens)" measured_property=pIC50 limit_operator== data_value=4.90
molecular_string=NS(=O)(=O)c1ccc(CNc2nc(-c3ccc(F)cc3)c3ccccc3n2)cc1 tgt="BRD4(2) (Homo sapiens)" measured_property=pIC50 limit_operator== data_value=5.21
molecular_string=NS(=O)(=O)c1ccc(Nc2nc(-c3ccc(Cl)cc3)c3ccccc3n2)cc1 tgt="BRD4(2) (Homo sapiens)" measured_property=pIC50 limit_operator== data_value=5.82
molecular_string=Cc1ccc(Nc2nc(-c3ccc(Cl)cc3)c3ccccc3n2)cc1 tgt="BRD4(2) (Homo sapiens)" measured_property=pIC50 limit_operator== data_value=5.06
molecular_string=NS(=O)(=O)c1ccc(Nc2nc(-c3ccc(OCc4ccccc4)cc3)c3ccccc3n2)cc1 tgt="BRD4(2) (Homo sapiens)" measured_property=pIC50 limit_operator=< data_value=4.70

###

test: In vivo pharmacokinetic study; design: species or system male Sprague-Dawley rats; details: male, Sprague-Dawley, rat, plasma, po, 10 mg/kg
measured property: AUC(0-inf)

molecular_string=NS(=O)(=O)c1ccc(Nc2nc(-c3ccc(F)cc3)c3ccccc3n2)cc1 measured_property=AUC(0-inf) data_value="15400 ng·h/mL"

###

test: MTT cytotoxicity / cell viability in NRCFs; format: cell-based; details: Sprague-Dawley, rat, primary neonatal rat cardiac fibroblasts (NRCFs)
measured property: IC50 at 24 h (µM)

molecular_string=NS(=O)(=O)c1ccc(Nc2nc(-c3ccc(F)cc3)c3ccccc3n2)cc1 data_value=48.2

###

experiment: In vivo pharmacokinetic study; parameters: species or system male Sprague-Dawley rats; conditions: male, Sprague-Dawley, rat, plasma, po, 10 mg/kg
measured property: Cmax (µg/mL)

compound="NS(=O)(=O)c1ccc(Nc2nc(-c3ccc(F)cc3)c3ccccc3n2)cc1 [Compound 28]" measured_property=Cmax output_unit=µg/mL data_value=2.17

###

test: In vivo pharmacokinetic study; design: species or system male Sprague-Dawley rats; conditions: male, Sprague-Dawley, rat, plasma, iv, 2 mg/kg
measured property: Cmax (ng/mL)

compound="NS(=O)(=O)c1ccc(Nc2nc(-c3ccc(F)cc3)c3ccccc3n2)cc1 [Compound 28]" data_value=2820

###

target: UniProt:O60885; experiment: HTRF bromodomain binding assay, BRD4
pIC50: −log10 of the molar value.
Label condition met when pIC50 >= 6; otherwise condition not met.

molecular_string=NS(=O)(=O)c1ccc(Nc2nc(-c3ccc(Br)cc3)c3ccccc3n2)cc1 class_label="condition not met"
molecular_string=NS(=O)(=O)c1ccccc1Nc1nc(-c2ccc(F)cc2)c2ccccc2n1 class_label="condition met"
molecular_string=O=S(=O)(c1ccc(Nc2nc(-c3ccc(F)cc3)c3ccccc3n2)cc1)N1CCOCC1 class_label="condition not met"
molecular_string=O=C(O)c1ccc(CNc2nc(-c3ccc(F)cc3)c3ccccc3n2)cc1 class_label="condition not met"
molecular_string=O=C(O)c1ccc(Nc2nc(-c3ccc(F)cc3)c3ccccc3n2)cc1 class_label="condition not met"
molecular_string=NS(=O)(=O)c1ccc(Nc2nc(-c3ccc(F)cc3)c3ccccc3n2)cc1 class_label="condition met"
molecular_string=NS(=O)(=O)c1ccc(Nc2nc(-c3ccc(Cl)cc3)c3ccccc3n2)cc1 class_label="condition not met"
molecular_string=N#Cc1ccc(-c2nc(Nc3ccc(S(N)(=O)=O)cc3)nc3ccccc23)cc1 class_label="condition met"

###

assay: In vivo pharmacokinetic study; set-up: species or system male Sprague-Dawley rats; settings: male, Sprague-Dawley, rat, plasma, iv, 2 mg/kg
measured property: half-life (h)

molecular_string=NS(=O)(=O)c1ccc(Nc2nc(-c3ccc(F)cc3)c3ccccc3n2)cc1 measured_property=half-life output_unit=h data_value=3.13

###

assay: In vivo pharmacokinetic study; set-up: species or system male Sprague-Dawley rats; conditions: male, Sprague-Dawley, rat, plasma, po, 10 mg/kg
measured property: Tmax (h)

molecular_string=NS(=O)(=O)c1ccc(Nc2nc(-c3ccc(F)cc3)c3ccccc3n2)cc1 data_value=2.67

###

biological target: BRD4(2) (Homo sapiens, UniProt O60885); assay: HTRF bromodomain binding assay, BRD4
pIC50: −log10 of the molar value.
measured property: pIC50

molecular_string=Clc1ccc(-c2nc(NCCc3c[nH]c4ccccc34)nc3ccccc23)cc1 tgt="BRD4(2) (Homo sapiens, UniProt O60885)" data_value=4.83
molecular_string=CC(C)(CO)Nc1nc(-c2ccc(Cl)cc2)c2ccccc2n1 tgt="BRD4(2) (Homo sapiens, UniProt O60885)" data_value=4.91
molecular_string=CC(C)c1ccc(Nc2nc(-c3ccc(Cl)cc3)c3ccccc3n2)cc1 tgt="BRD4(2) (Homo sapiens, UniProt O60885)" data_value=4.89
molecular_string=Cc1ccc(-c2nc(Nc3ccc(S(N)(=O)=O)cc3)nc3ccccc23)cc1 tgt="BRD4(2) (Homo sapiens, UniProt O60885)" data_value=5.49
molecular_string=O=C(O)c1ccc(Nc2nc(-c3ccc(Cl)cc3)c3ccccc3n2)cc1 tgt="BRD4(2) (Homo sapiens, UniProt O60885)" data_value=5.52
molecular_string=COc1ccc(-c2nc(Nc3ccccc3S(N)(=O)=O)nc3ccccc23)cc1 tgt="BRD4(2) (Homo sapiens, UniProt O60885)" data_value=5.00
molecular_string=NC(=O)CNc1nc(-c2ccc(Cl)cc2)c2ccccc2n1 tgt="BRD4(2) (Homo sapiens, UniProt O60885)" data_value=5.34
molecular_string=Clc1ccc(-c2nc(NCc3ccco3)nc3ccccc23)cc1 tgt="BRD4(2) (Homo sapiens, UniProt O60885)" data_value=4.88
molecular_string=Clc1ccc(-c2nc(Nc3ccc(Br)cc3)nc3ccccc23)cc1 tgt="BRD4(2) (Homo sapiens, UniProt O60885)" data_value=5.15
molecular_string=CNC(=O)c1ccc(-c2nc(Nc3ccc(S(N)(=O)=O)cc3)nc3ccccc23)cc1 tgt="BRD4(2) (Homo sapiens, UniProt O60885)" data_value=5.44
molecular_string=NS(=O)(=O)c1ccccc1Nc1nc(-c2ccc(Br)cc2)c2ccccc2n1 tgt="BRD4(2) (Homo sapiens, UniProt O60885)" data_value=5.49
molecular_string=N#Cc1ccc(-c2nc(Nc3ccc(S(N)(=O)=O)cc3)nc3ccccc23)cc1 tgt="BRD4(2) (Homo sapiens, UniProt O60885)" data_value=6.16
molecular_string=NS(=O)(=O)c1ccc(Nc2nc(Nc3ccc(Br)cc3)c3ccccc3n2)cc1 tgt="BRD4(2) (Homo sapiens, UniProt O60885)" data_value=5.01
molecular_string=Oc1ccc(Nc2nc(-c3ccc(Cl)cc3)c3ccccc3n2)cc1 tgt="BRD4(2) (Homo sapiens, UniProt O60885)" data_value=5.37
molecular_string=O=S(=O)(c1ccccc1Nc1nc(-c2ccc(F)cc2)c2ccccc2n1)N1CCOCC1 tgt="BRD4(2) (Homo sapiens, UniProt O60885)" data_value=5.17
molecular_string=COC(=O)c1ccc(-c2nc(Nc3ccc(S(N)(=O)=O)cc3)nc3ccccc23)cc1 tgt="BRD4(2) (Homo sapiens, UniProt O60885)" data_value=5.29
molecular_string=CC(C)c1ccc(Nc2nc(-c3ccc(F)cc3)c3ccccc3n2)cc1 tgt="BRD4(2) (Homo sapiens, UniProt O60885)" data_value=5.28
molecular_string=COC(=O)c1ccc(CNc2nc(-c3ccc(Cl)cc3)c3ccccc3n2)cc1 tgt="BRD4(2) (Homo sapiens, UniProt O60885)" data_value=5.04
